system: EKVX NSCLC; experiment: NCI-60 one-dose screen, 48 h (100 = growth as untreated, 0 = no growth, -100 = all killed); conditions: 10 µM unless noted
Compounds without any hit were thinned out: in the full panel of roughly 83,000, 20% have a hit.
Listed compounds paired with reported growth
Give the quantity in %, number only.

Recorded growth, per entry:
>  <compound>
COc1ccc(C2=C(c3ccccc3)c3ccc(OC(C)=O)cc3OC2(C)C)cc1

>  <growth / %>
82.3

$$$$
>  <compound>
S=c1[nH]cccc1-c1nnc2n1Nc1nc3ccc(Cl)cc3cc1CS2

>  <growth / %>
93.1

$$$$
>  <compound>
O=C1/C(=C\c2cn(Cc3ccccc3)c3ccc(Br)cc23)c2ccccc2N1c1c(Cl)cccc1Cl

>  <growth / %>
89.2

$$$$
>  <compound>
Clc1ccc(C2CC(c3cccc(Nc4ccncc4)c3)=NN2c2cc(Cl)cc(Cl)c2)cc1 (stereo not given)

>  <growth / %>
74.3

$$$$
>  <compound>
COc1ccc(C(O)c2cc3c(N)c(C(=O)Nc4ccc(Cl)cc4)sc3nc2C)cc1 (stereo not given)

>  <growth / %>
37

$$$$
>  <compound>
N#CSCC1CC(O)(c2ccccc2)C(c2ccccc2)C(c2ccc(F)cc2)O1 (stereo not given)

>  <growth / %>
14

$$$$
>  <compound>
CCCCCCCCN1C(=O)/C(=c2\sc3n(c2=O)C2C(NN=3)N(CC)C(=O)N2CC)c2ccccc21 (stereo not given)

>  <growth / %>
73.9

$$$$
>  <compound>
COc1ccc(-c2nc(SC)nc(N3CCOCC3)c2C#N)cc1

>  <growth / %>
97.7

$$$$
>  <compound>
COc1ccc(-c2nc3sccn3c2/C=C/C(=O)c2cc(OC)c(OC)c(OC)c2)cc1

>  <growth / %>
60

$$$$

// switching to the query compound
Requested field: growth. Item: Nc1c(C(=O)Nc2ccc(Cl)cc2)cc(-c2nc3ccccc3s2)c(=O)n1NS(=O)(=O)c1ccc(Cl)cc1
85.8
